Tested on: NCI/ADR-RES ovarian
Test: NCI tumour cell line growth inhibition, 48 h
MEASUREMENT_KIND: TGI (µM)
Numbers only; they are read as µM.

These recorded examples may help you get a feel for the data.
Cc1ccc(Nc2nc(NCCO)c3ccccc3n2)cc1C ... 20.6
CCCCCCCCCCCCN1C(C)=CS/C1=C\C=C\c1scc(C)[n+]1CCCCCCCCCCCC ... 34.4
O=C1/C(=C/c2cccc([N+](=O)[O-])c2)COc2ccc(O)c(O)c21 ... 18
CC(C)(C)[Si](C)(C)OCC1CCC(n2cnc3c(NC(=O)c4ccccc4)ncnc32)O1 (stereo not given) ... 33.4
O=C(Nc1ccc(S(=O)(=O)Nc2nccs2)cc1)c1cccnc1Nc1cccc(Cl)c1 ... 45.7

**Q:** What value of TGI has been reported for the following molecule? Nc1c(C(=O)Nc2ccccc2)sc2nc3c(cc12)CCCCCC3
**A:** 3.32

**Q:** What value of TGI has been reported for the following molecule? COc1ccc(CN2C(=O)/C(=C\c3cc(OC)c(OC)c(OC)c3)c3cc(OC)ccc32)cc1
**A:** 9.11

**Q:** What value of TGI has been reported for the following molecule? O=C(c1ccccc1)c1ccc(C(c2c(O)c3ccccc3oc2=O)c2c(O)c3ccccc3oc2=O)cc1
**A:** 62.5

**Q:** What value of TGI has been reported for the following molecule? CCc1ccc(-c2nnc(COc3ccc(-c4nc5ccc(C)cc5[nH]4)cc3OC)o2)cc1
**A:** 37.5

**Q:** What value of TGI has been reported for the following molecule? CN(C)CCNC(=O)c1ccc(Nc2nc3ccccc3c3occc23)cc1
**A:** 22.6

**Q:** What value of TGI has been reported for the following molecule? O=[N+]([O-])c1ccc(N2CCN(Cc3ccccc3)CC2)c2c1no[n+]2[O-]
**A:** 12.3

**Q:** What value of TGI has been reported for the following molecule? COc1c(CC=C(C)C)c(O)c(C(CC(C)C)c2c(O)c(C(C)=O)c(O)c3c2OC(C(C)(C)O)C3)c(O)c1C(C)=O (stereo not given)
**A:** 12.2

====

Tested on: HS 578T breast
Test: NCI tumour cell line growth inhibition, 48 h
MEASUREMENT_KIND: TGI

These recorded examples may help you get a feel for the data.
O=[N+]([O-])c1cnc(Sc2ccncn2)c([N+](=O)[O-])c1 ... 57.2 µM
CCOC(=O)CC(=O)NC1CC2CCC1(C)C2(C)C (stereo not given) ... > 100 µM

**Q:** What value of TGI has been reported for the following molecule? Cc1ccc(-c2c(C#N)c(-c3ccc(Cl)cc3)c(C#N)c(=O)n2NS(=O)(=O)c2ccccc2)cc1
**A:** > 100 µM

**Q:** What value of TGI has been reported for the following molecule? CC(O)C1OC(O)C2OC(C)(C)OC12 (stereo not given)
**A:** > 100 µM

**Q:** What value of TGI has been reported for the following molecule? CCOc1c2ccsc2c(OCC)c2ccsc12
**A:** > 73.7 µM

====

Tested on: LXFL 529 NSCLC
Assay: NCI tumour cell line growth inhibition, 48 h
MEASUREMENT_KIND: TGI

C=CC1(C)CCC(C(C)C(=O)C(C=C(C)C)OC(C)=O)C12C(=O)Oc1ccccc1C2=O (stereo not drawn) ... > 100 µM
COc1ccc(OCC(=O)O)c2c1CCC(C(C)C)C2=O (stereo not drawn) ... > 100 µM

Lab note: next compound to report on.
**Q:** What value of TGI has been reported for the following compound? CC[C@@H]1C[C@@H]2CN3CCc4c([nH]c5ccc(OC)cc45)C(COC(=O)c4ccc(OC)c(OC)c4)(C2)C13
**A:** 35.1 µM
